experiment: Particle size analysis (granulometry) by laser dispersion; format: physicochemical; settings: dispersing fluid silicone oil
Reported Percentage of particles between 9.82 μm and 57.8 μm is given for each of the following compounds.
MEASURED_METRIC: Percentage of particles between 9.82 μm and 57.8 μm (%)

[[record]]
compound = "COC1=C(OC)C(=O)C(C/C=C(\\C)CC/C=C(\\C)CC/C=C(\\C)CC/C=C(\\C)CC/C=C(\\C)CC/C=C(\\C)CC/C=C(\\C)CC/C=C(\\C)CC/C=C(\\C)CCC=C(C)C)=C(C)C1=O.COC1=C(OC)C(=O)C(C/C=C(\\C)CC/C=C(\\C)CC/C=C(\\C)CC/C=C(\\C)CC/C=C(\\C)CC/C=C(\\C)CC/C=C(\\C)CC/C=C(\\C)CC/C=C(\\C)CCC=C(C)C)=C(C)C1=O.Oc1ccc(O)cc1 [Compound P57-VI, Ubiquinone:hydroquinone (2:1)]"
display_unit = "%"
numeric_result = 58.3

[[record]]
compound = "COC1=C(OC)C(=O)C(C/C=C(\\C)CC/C=C(\\C)CC/C=C(\\C)CC/C=C(\\C)CC/C=C(\\C)CC/C=C(\\C)CC/C=C(\\C)CC/C=C(\\C)CC/C=C(\\C)CCC=C(C)C)=C(C)C1=O"
display_unit = "%"
numeric_result = 83.1

[[record]]
compound = "COC1=C(OC)C(=O)C(C/C=C(\\C)CC/C=C(\\C)CC/C=C(\\C)CC/C=C(\\C)CC/C=C(\\C)CC/C=C(\\C)CC/C=C(\\C)CC/C=C(\\C)CC/C=C(\\C)CCC=C(C)C)=C(C)C1=O.COC1=C(OC)C(=O)C(C/C=C(\\C)CC/C=C(\\C)CC/C=C(\\C)CC/C=C(\\C)CC/C=C(\\C)CC/C=C(\\C)CC/C=C(\\C)CC/C=C(\\C)CC/C=C(\\C)CCC=C(C)C)=C(C)C1=O.O.Oc1cc(O)cc(O)c1"
display_unit = "%"
numeric_result = 88.9

[[record]]
compound = "COC1=C(OC)C(=O)C(C/C=C(\\C)CC/C=C(\\C)CC/C=C(\\C)CC/C=C(\\C)CC/C=C(\\C)CC/C=C(\\C)CC/C=C(\\C)CC/C=C(\\C)CC/C=C(\\C)CCC=C(C)C)=C(C)C1=O.O=C(O)c1ccc(O)cc1"
display_unit = "%"
numeric_result = 70.5

[[record]]
compound = "COC1=C(OC)C(=O)C(C/C=C(\\C)CC/C=C(\\C)CC/C=C(\\C)CC/C=C(\\C)CC/C=C(\\C)CC/C=C(\\C)CC/C=C(\\C)CC/C=C(\\C)CC/C=C(\\C)CCC=C(C)C)=C(C)C1=O.COC1=C(OC)C(=O)C(C/C=C(\\C)CC/C=C(\\C)CC/C=C(\\C)CC/C=C(\\C)CC/C=C(\\C)CC/C=C(\\C)CC/C=C(\\C)CC/C=C(\\C)CC/C=C(\\C)CCC=C(C)C)=C(C)C1=O.Cc1cc(O)cc(O)c1.Cc1cc(O)cc(O)c1.Cc1cc(O)cc(O)c1"
display_unit = "%"
numeric_result = 75.5

